# measurement-target: mouse GR (Mus musculus)
# Construct: endogenous in cells
# Sequence (P06537 1-792): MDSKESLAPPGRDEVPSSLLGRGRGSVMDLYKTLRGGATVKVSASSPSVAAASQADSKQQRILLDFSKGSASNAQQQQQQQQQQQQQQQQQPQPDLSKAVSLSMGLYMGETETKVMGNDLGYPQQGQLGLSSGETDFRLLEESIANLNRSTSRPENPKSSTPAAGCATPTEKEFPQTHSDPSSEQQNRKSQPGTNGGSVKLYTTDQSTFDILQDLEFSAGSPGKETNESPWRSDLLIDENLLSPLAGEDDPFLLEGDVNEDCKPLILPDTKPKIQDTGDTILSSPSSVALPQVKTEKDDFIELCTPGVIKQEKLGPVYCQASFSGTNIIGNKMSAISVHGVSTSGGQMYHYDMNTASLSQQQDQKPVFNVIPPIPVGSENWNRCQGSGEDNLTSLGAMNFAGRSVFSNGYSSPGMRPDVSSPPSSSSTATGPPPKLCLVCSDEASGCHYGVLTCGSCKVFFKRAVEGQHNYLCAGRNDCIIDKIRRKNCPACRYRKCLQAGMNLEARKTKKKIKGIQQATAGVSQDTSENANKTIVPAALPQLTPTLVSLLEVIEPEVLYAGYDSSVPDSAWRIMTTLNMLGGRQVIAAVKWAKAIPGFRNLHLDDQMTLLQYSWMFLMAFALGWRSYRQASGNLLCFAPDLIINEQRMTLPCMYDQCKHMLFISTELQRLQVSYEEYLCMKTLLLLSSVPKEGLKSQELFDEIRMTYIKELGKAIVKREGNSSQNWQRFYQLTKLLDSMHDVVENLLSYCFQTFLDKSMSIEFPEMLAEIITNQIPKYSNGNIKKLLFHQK
# protocol-summary: Competition binding assay on cells, mouse GR
# details: GL261 cells, displacing 3H-dexamethasone; read-out: KD msGR
assay-endpoint: Kd (nM)
Answer in nM, number only, no unit symbol.

Req: Quick check: Kd of C[C@]12C=CC(=O)C=C1CCC1C2[C@@H](O)C[C@@]2(C)C1CC[C@]2(O)C(=O)CNC(=O)c1ccc(F)cc1 (stereo partly shown) [GR02] ?
Resp: 6.71

Reference source for all entries: paper PMC5945515
